- assayed.system: AR protein (Homo sapiens, UniProt P10275, T878A)
- Construct: The percent AR protein degradation induced by these compounds at various concentrations in LNCaP cells; host or cells: LNCaP
- experiment.description: AR protein degradation in LNCaP cells (Western blotting)
- Format: cell-based
- settings: 1 μM, treatment time 6 h, average of three independent experiments
For each record, write down the corresponding % AR protein degradation in LNCaP Cells.

Input: GET /values?readout=% AR protein degradation in LNCaP Cells&item= Cc1cc([C@H](C(=O)N2C[C@H](O)C[C@H]2C(=O)N[C@@H](CC(=O)N2CCN(c3ccc(C#Cc4ccc(C(=O)N[C@H]5C(C)(C)[C@H](Oc6ccc(C#N)c(Cl)c6)C5(C)C)cc4)cn3)CC2)c2ccc(-c3scnc3C)cc2)C(C)C)on1 [Compound 28]
Output: 93%

Input: I would be grateful if you could share the reported % AR protein degradation in LNCaP Cells for Cc1ncsc1-c1ccc([C@H](CC(=O)N2CCC(N3CCC(C#Cc4ccc(C(=O)NC5C(C)(C)C(Oc6ccc(C#N)c(Cl)c6)C5(C)C)cc4)CC3)CC2)NC(=O)[C@@H]2C[C@@H](O)CN2C(=O)[C@@H](NC(=O)C2(F)CC2)C(C)(C)C)cc1 (stereo partly drawn) [Compound 34] .
Output: 100%

Input: Please look up its % AR protein degradation in LNCaP Cells: CC(=O)N[C@H](C(=O)N1C[C@H](O)C[C@H]1C(=O)N[C@@H](CC(=O)N1CCC(N2CCC(C#Cc3ccc(C(=O)N[C@H]4C(C)(C)[C@H](Oc5ccc(C#N)c(Cl)c5)C4(C)C)cc3)CC2)CC1)c1ccc(-c2scnc2C)cc1)C(C)(C)C [Compound 36]
Output: 99%

Input: Tell me the measured % AR protein degradation in LNCaP Cells of Cc1ncsc1-c1ccc([C@H](CC(=O)N2CCC(N3CCC(C#Cc4ccc(C(=O)N[C@H]5C(C)(C)[C@H](Oc6ccc(C#N)c(Cl)c6)C5(C)C)cc4)CC3)CC2)NC(=O)[C@@H]2C[C@@H](O)CN2C(=O)[C@H](NC(=O)C2(F)CC2)C(C)(C)C)cc1 [Compound 38] , please.
Output: <5%

Input: Fill in the blank: the reported % AR protein degradation in LNCaP Cells of Cc1ncsc1-c1ccc([C@H](CC(=O)N2CCC(N3CCC(C#Cc4ccc(C(=O)N[C@H]5C(C)(C)[C@H](Oc6ccc(C#N)c(Cl)c6)C5(C)C)cc4)CC3)CC2)NC(=O)[C@@H]2C[C@@H](O)CN2C(=O)[C@@H](NC(=O)C2(C#N)CC2)C(C)(C)C)cc1 [Compound 35] is ____.
Output: 100%

Input: I am curious: what % AR protein degradation in LNCaP Cells value has been reported for Cc1ncsc1-c1ccc([C@@H](CC(=O)N2CCC(N3CCC(C#Cc4ccc(C(=O)N[C@H]5C(C)(C)[C@H](Oc6ccc(C#N)c(Cl)c6)C5(C)C)cc4)CC3)CC2)NC(=O)[C@@H]2C[C@@H](O)CN2C(=O)[C@@H](NC(=O)C2(F)CC2)C(C)(C)C)cc1 [Compound 37] ?
Output: <5%

* * *

- assayed.system: AR protein (Homo sapiens, UniProt P10275, T878A)
- Construct: The percent AR protein degradation induced by these compounds at various concentrations in LNCaP cells; host or cells: LNCaP
- Sequence (P10275 1-920 T878A): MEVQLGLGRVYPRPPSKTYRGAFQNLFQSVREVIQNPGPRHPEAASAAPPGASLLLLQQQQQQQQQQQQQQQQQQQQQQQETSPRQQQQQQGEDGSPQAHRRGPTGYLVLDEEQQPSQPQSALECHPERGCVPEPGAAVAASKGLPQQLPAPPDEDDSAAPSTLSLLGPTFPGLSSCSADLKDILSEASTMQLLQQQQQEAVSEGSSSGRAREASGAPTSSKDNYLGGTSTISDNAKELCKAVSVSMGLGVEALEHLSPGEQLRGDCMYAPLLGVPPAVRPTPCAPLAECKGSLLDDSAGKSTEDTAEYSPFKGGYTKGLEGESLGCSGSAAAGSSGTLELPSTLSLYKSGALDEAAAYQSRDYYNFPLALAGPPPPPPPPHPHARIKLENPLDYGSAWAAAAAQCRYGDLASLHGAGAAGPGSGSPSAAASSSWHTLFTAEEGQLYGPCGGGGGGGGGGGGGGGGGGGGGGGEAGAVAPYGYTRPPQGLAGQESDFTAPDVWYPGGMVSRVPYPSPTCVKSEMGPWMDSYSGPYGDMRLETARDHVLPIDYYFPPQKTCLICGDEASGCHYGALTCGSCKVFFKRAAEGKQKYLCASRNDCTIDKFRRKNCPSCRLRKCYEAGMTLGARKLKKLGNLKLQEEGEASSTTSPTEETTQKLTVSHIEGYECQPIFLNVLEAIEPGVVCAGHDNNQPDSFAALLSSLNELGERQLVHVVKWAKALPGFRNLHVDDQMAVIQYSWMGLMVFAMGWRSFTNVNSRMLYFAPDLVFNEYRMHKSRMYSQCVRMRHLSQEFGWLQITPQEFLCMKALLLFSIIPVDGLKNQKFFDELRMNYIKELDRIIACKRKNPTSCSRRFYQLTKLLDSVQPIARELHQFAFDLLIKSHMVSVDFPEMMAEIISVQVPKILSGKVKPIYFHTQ
- experiment.description: AR protein degradation in LNCaP cells (Western blotting)
- Format: cell-based
- settings: LNCaP; 0.1 μM, treatment time 6 h, average of three independent experiments; read-out: % AR protein degradation in LNCaP Cells
# note: exactly 50% is not below, so it is class 0; use class 1 for Dmax at 0.1 µM strictly under it

Input: # TODO verify Dmax at 0.1 µM < 50% strictly for this compound: Cc1ncsc1-c1ccc(CNC(=O)C2C[C@@H](O)CN2C(=O)[C@@H](NC(=O)CCCCCCCNC(=O)c2ccc(N3C(=S)N(c4ccc(C#N)c(C(F)(F)F)c4)C(=O)C3(C)C)cc2F)C(C)(C)C)cc1 (stereo partly drawn)
Output: class 1

Input: Decide: Dmax at 0.1 µM of Cc1ncsc1-c1ccc(CNC(=O)C2C[C@@H](O)CN2C(=O)[C@@H](NC(=O)CCCCCCCCNC(=O)c2ccc(N3C(=S)N(c4ccc(C#N)c(C(F)(F)F)c4)C(=O)C3(C)C)cc2F)C(C)(C)C)cc1 (stereo partly drawn) strictly below 50%?
Output: class 0

Input: Is Dmax at 0.1 µM strictly under 50% for the entry Cc1ncsc1-c1ccc(CNC(=O)C2C[C@@H](O)CN2C(=O)[C@@H](NC(=O)CCCCCCc2ccc(C#Cc3ccc(N4C(=S)N(c5ccc(C#N)c(C(F)(F)F)c5)C(=O)C4(C)C)cc3)cn2)C(C)(C)C)cc1 (stereo partly drawn) ?
Output: class 0

Input: Determine if Cc1ncsc1-c1ccc([C@H](C)NC(=O)C2C[C@@H](O)CN2C(=O)[C@@H](NC(=O)CN2CCN(c3ccc(C#Cc4ccc(N5C(=S)N(c6ccc(C#N)c(C(F)(F)F)c6)C(=O)C5(C)C)cc4)cn3)CC2)C(C)(C)C)cc1 (stereo partly drawn) shows Dmax at 0.1 µM strictly lower than 50%.
Output: class 1

Input: Is the reported Dmax at 0.1 µM for Cc1ncsc1-c1ccc(CNC(=O)C2C[C@@H](O)CN2C(=O)[C@@H](NC(=O)CCCNC(=O)c2ccc(N3C(=S)N(c4ccc(C#N)c(C(F)(F)F)c4)C(=O)C3(C)C)cc2F)C(C)(C)C)cc1 (stereo partly drawn) strictly below 50%?
Output: class 1

Input: API: query returns whether the compound falls strictly under 50% in Dmax at 0.1 µM. Query: `Cc1cc([C@H](C(=O)N2C[C@H](O)C[C@H]2C(=O)N[C@@H](CC(=O)N2CCC(N3CCC(C#Cc4ccc(N5C(=S)N(c6ccc(C#N)c(C(F)(F)F)c6)C(=O)C5(C)C)cc4)CC3)CC2)c2ccc(-c3scnc3C)cc2)C(C)C)on1`
Output: class 0

Input: Does this compound meet the criterion Dmax at 0.1 µM < 50%? `Cc1cc([C@H](C(=O)N2C[C@H](O)C[C@H]2C(=O)N[C@@H](CC(=O)NCCCCCCCCCNC(=O)c2ccc(C(=O)N[C@H]3C(C)(C)[C@H](Oc4ccc(C#N)c(Cl)c4)C3(C)C)cc2)c2ccc(-c3scnc3C)cc2)C(C)C)on1`
Output: class 0

Input: Hi there! Is Dmax at 0.1 µM for Cc1ncsc1-c1ccc(CNC(=O)C2C[C@@H](O)CN2C(=O)[C@@H](NC(=O)CCCCCCCCCCNC(=O)c2ccc(N3C(=S)N(c4ccc(C#N)c(C(F)(F)F)c4)C(=O)C3(C)C)cc2F)C(C)(C)C)cc1 (stereo partly drawn) below 50%, do you know?
Output: class 1

Input: Does Cc1ncsc1-c1ccc(CNC(=O)C2C[C@@H](O)CN2C(=O)[C@@H](NC(=O)CCCCCCCCCCCNC(=O)c2ccc(N3C(=S)N(c4ccc(C#N)c(C(F)(F)F)c4)C(=O)C3(C)C)cc2F)C(C)(C)C)cc1 (stereo partly drawn) have Dmax at 0.1 µM strictly under 50%?
Output: class 1
